Where these numbers come from: patent US11643388B2

# test-summary: Metabolic stability (h)
# Type: in vitro ADME, human
# conditions: % remaining at 45 min
reported-metric: Met Stab(h) % rem/45 min (%)

[a] O=C(NC[C@H](NC(=O)c1c(Cl)cc(C(=O)NCc2cccc(O)c2)cc1Cl)C(=O)O)N[C@@H]1CCc2ccccc21 [SU15210-0095-01]
[b] O=C(NC[C@H](NC(=O)c1c(Cl)cc2c(c1Cl)CCN(C(=O)c1ccccc1)C2)C(=O)O)N[C@@H]1CCc2ccccc21 [SU15210-0173-01]
Task: Select the item with the higher value of Met Stab(h) % rem/45 min from the options a and b listed. Lab log: write the label of the selected item as the result.
Output: a

====

# test-summary: Caco-2 permeability
# Format: in vitro ADME
# conditions: human, A-B direction
reported-metric: Papp A→B (×10⁻⁶ cm/s)

compound-string: CN(Cc1ccccc1)C(=O)NC[C@H](NC(=O)c1c(Cl)cc(C(=O)NCc2cccc(O)c2)cc1Cl)C(=O)O
Papp A→B / ×10⁻⁶ cm/s: 2.2
//
compound-string: O=C(NC[C@H](NC(=O)c1c(Cl)cc(C(=O)NCc2cccc(O)c2)cc1Cl)C(=O)O)N[C@@H]1CCc2ccccc21
Papp A→B / ×10⁻⁶ cm/s: 3.2
//
compound-string: O=C(NC[C@H](NC(=O)c1c(Cl)cc(C(=O)NCc2cccc(Cl)c2)cc1Cl)C(=O)O)N[C@@H]1CCc2ccccc21
Papp A→B / ×10⁻⁶ cm/s: 2.2

[P] O=C(NC[C@H](NC(=O)c1c(Cl)ccc(Nc2ncc3ccccc3n2)c1Cl)C(=O)O)N[C@@H]1CCc2ccccc21
[Q] O=C(Cc1cccc(Cl)c1)Nc1ccc(Cl)c(C(=O)N[C@@H](CNC(=O)N[C@@H]2CCc3ccccc32)C(=O)O)c1Cl
[R] O=C(NC[C@H](NC(=O)c1c(Cl)cc2c(c1Cl)CCN(C(=O)c1ccccc1)C2)C(=O)O)N[C@@H]1CCc2ccccc21
Task: Give the ascending ranking of the items by reported Papp A→B. Enter labels, ranked according to the request.
Output: P, R, Q

====

# subject-of-test: α2β1 (Homo sapiens, UniProt P05556+P17301)
# Sequence (P17301 30-1181): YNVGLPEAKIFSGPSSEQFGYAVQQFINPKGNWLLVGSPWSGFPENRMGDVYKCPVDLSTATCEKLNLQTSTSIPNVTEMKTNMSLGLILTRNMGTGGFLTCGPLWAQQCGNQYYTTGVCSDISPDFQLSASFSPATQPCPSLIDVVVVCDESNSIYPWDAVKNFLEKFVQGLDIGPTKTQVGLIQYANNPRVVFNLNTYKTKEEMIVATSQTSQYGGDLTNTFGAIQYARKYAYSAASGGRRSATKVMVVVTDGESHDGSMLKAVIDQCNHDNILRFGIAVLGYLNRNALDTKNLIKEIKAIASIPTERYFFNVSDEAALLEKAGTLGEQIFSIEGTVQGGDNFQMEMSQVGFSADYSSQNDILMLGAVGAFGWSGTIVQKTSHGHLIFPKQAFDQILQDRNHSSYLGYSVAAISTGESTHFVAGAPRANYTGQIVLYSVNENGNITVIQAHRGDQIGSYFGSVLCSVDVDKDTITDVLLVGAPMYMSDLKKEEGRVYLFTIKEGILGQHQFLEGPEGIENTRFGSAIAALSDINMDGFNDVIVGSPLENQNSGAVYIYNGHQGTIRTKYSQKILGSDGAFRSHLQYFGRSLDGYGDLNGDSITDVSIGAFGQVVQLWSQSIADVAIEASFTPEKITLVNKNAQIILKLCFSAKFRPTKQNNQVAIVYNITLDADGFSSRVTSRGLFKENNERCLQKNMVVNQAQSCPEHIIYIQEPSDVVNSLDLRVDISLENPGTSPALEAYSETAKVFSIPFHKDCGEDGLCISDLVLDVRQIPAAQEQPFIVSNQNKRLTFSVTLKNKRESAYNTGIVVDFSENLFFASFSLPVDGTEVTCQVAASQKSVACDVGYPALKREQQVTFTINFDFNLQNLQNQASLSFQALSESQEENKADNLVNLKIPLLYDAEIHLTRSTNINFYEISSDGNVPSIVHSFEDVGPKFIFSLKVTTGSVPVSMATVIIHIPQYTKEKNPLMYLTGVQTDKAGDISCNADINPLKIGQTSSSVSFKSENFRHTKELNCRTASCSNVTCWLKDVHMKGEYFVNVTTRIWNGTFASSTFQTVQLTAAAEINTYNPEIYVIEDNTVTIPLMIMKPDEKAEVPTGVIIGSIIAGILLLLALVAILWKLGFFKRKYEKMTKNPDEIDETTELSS
# Sequence (P05556 21-798): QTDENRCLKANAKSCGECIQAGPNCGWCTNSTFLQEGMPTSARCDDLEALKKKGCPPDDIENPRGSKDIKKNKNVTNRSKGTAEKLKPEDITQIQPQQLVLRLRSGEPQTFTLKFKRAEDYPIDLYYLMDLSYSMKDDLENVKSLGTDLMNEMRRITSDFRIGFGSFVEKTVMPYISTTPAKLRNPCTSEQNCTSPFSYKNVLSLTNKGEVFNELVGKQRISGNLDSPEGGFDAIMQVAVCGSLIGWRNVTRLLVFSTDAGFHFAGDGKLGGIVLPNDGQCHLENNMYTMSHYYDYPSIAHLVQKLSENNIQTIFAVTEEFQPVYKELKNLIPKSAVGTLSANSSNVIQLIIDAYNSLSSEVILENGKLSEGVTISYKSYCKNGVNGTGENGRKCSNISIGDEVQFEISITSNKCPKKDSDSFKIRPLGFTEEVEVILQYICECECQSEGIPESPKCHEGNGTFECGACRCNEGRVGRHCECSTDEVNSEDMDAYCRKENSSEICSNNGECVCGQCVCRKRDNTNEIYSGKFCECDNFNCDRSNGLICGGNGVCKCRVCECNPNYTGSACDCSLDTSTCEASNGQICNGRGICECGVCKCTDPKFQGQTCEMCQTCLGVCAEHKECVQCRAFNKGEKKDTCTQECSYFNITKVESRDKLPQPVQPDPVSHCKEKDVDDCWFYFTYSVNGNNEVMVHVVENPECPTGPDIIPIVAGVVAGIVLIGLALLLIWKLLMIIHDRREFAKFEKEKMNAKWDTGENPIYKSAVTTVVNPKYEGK
# test-summary: α2β1 cell adhesion
# Format: cell-based
reported-metric: IC50

compound: O=C(NC[C@H](NC(=O)c1c(Cl)ccc(Nc2ncc3ccccc3n2)c1Cl)C(=O)O)N[C@@H]1CCc2ccccc21 [SU15210-0076-01]
subject-of-test: α2β1 (Homo sapiens, UniProt P05556+P17301)
observed: < 500 nM
--
compound: O=C(NC[C@H](NC(=O)c1c(Cl)cc(C(=O)NCc2cccc(O)c2)cc1Cl)C(=O)O)N[C@@H]1CCc2ccccc21 [SU15210-0095-01]
subject-of-test: α2β1 (Homo sapiens, UniProt P05556+P17301)
observed: < 500 nM
--
compound: O=C(CCc1ccccc1)Nc1ccc(Cl)c(C(=O)N[C@@H](CNC(=O)N[C@@H]2CCc3ccccc32)C(=O)O)c1Cl [SU15210-0124-01]
subject-of-test: α2β1 (Homo sapiens, UniProt P05556+P17301)
observed: < 500 nM
--
compound: O=C(NC[C@H](NC(=O)c1c(Cl)cc(C(=O)N2CCc3ccccc3C2)cc1Cl)C(=O)O)N[C@@H]1CCc2ccccc21 [SU15210-0227-01]
subject-of-test: α2β1 (Homo sapiens, UniProt P05556+P17301)
observed: 500 to 1000 nM
--
compound: O=C(NC[C@H](NC(=O)c1c(Cl)cc2c(c1Cl)CCN(Cc1ccccc1)C2=O)C(=O)O)N[C@@H]1CCc2ccccc21 [SU15210-0211-01]
subject-of-test: α2β1 (Homo sapiens, UniProt P05556+P17301)
observed: < 500 nM

Task: Which IC50 value is on record for CC1(C)CCC(NC(=O)NC[C@H](NC(=O)c2c(Cl)cc(C(=O)NCc3cccc(O)c3)cc2Cl)C(=O)O)c2ccccc21 (stereo partly drawn) [SU15210-0187-01] ?
Output: < 500 nM
